assay: Pharmacokinetic test in male SD rats, tail vein injection; assay type: in vivo, rat; conditions: rat, plasma, iv, 15 mg/kg tail vein injection, read-out: Vdss
Vd values by entry
Please give a number only; it is taken to be in L/kg.

CN(C)C1(C(=O)N2CCN(C(=O)c3cc(Oc4n[nH]c(=O)c5ccccc45)ccc3F)CC2)CC1 | 0.665

From here, focus on the item given below.
Dear colleague, I am looking for the recorded Vd of the following compound: O=C(c1cc(Cc2n[nH]c(=O)c3ccccc23)ccc1F)N1CCN(C(=O)C2CC2)CC1
0.766

----------
system: prostatic cancer cell line DU-145; assay: Cell proliferation inhibition assay, DU-145 (Cell Titer-Glo, 5 days); assay type: cell-based; details: Homo sapiens, 120 h; DU-145, 5 days
REPORTED METRIC: IC50 (µM)
Please give a number only; it is taken to be in µM.

Study these solved cases before continuing.
O=C(c1cc(Cc2n[nH]c(=O)c3ccccc23)ccc1F)N1CCN(C(=O)C2CC2)CC1 | 65
CN(C)C1(C(=O)N2CCN(C(=O)c3cc(Oc4n[nH]c(=O)c5ccccc45)ccc3F)CC2)CC1 | 2.7
CN(C)C1(C(=O)N2CCN(C(=O)c3cc(Oc4n[nH]c(=O)c5ccccc45)ccc3F)CC2)CCC1 | 1.9

From here, focus on the item given below.
Dear colleague, I am looking for the recorded IC50 of the following compound: O=C(c1cc(Oc2n[nH]c(=O)c3ccccc23)ccc1F)N1CCN(C(=O)N2CCCCC2)CC1
3.7
